assay: Confirmation of Inhibitors Targeting the Menin-MLL Interaction in MLL Related Leukemias: Competition With Texas Red Labeled MLL-derived Mutant Peptide; details: fluorescence polarization, Texas Red MLL peptide displacement; series mostly up to 288 µM
Records with an inconclusive call do not appear. The source made the active and inactive calls. Calls follow the shape of the dose curve; as a rule, active = well fitted inhibition curve with a large enough effect in the polarisation, with a control signal flat (not every such curve was filed as active); inconclusive = small, poorly fitted or top-dose-only effect, or effect the other way, or a change in a side signal; inactive = no such curve, though single readings can be large or run the other way; the % refers to the polarisation.
Returns: one label drawn from active, inactive

The following compounds have reported results that may help.
Recorded test call requested for OC12C3C4CC5C6C4C1C6C(C53)N2CCc1cccc(F)c1 (centres undefined) inactive

Which outcome was assigned to CCOP(=O)(OCC)C(NC(=O)c1ccccc1C)C(Cl)(Cl)Cl (centres undefined) in this test? inactive

What outcome does the record of this test show for O=C(O)CN1C(=O)CN=C(c2ccccn2)c2cc(Cl)ccc21 ? inactive

Further cases:
For CC[C@]12C=CCN3CC[C@@]4(c5ccc(OC)cc5N(C)[C@H]4[C@@](O)(C(=O)OC)[C@@H]1OC(C)=O)C32 (some centres undefined) , which call appears in the assay record? inactive

Write down the call the test reported for this compound. Item: Cc1cc(C(=O)NP(=O)(N2CCOCC2)N2CCOCC2)c(C)n1C1CC1 inactive

Please let me know the test result on file for CCCCn1c(=O)c(C(=O)Nc2ccsc2C(=O)OC)c(O)c2ccccc21 . active

Can you look up the reported call for c1cc2cc(c1)C[n+]1ccc(c3ccccc31)NCc1ccc(cc1)CNc1cc[n+](c3ccccc13)C2 for me? active

Answer briefly: the call reported for C[C@@H]1CC[C@@]2(NC1)O[C@H]1C[C@H]3[C@@H]4CC=C5C[C@@H](O)CC[C@]5(C)[C@H]4CC[C@]3(C)[C@H]1[C@@H]2C in this assay. inactive

Assay result, entry O=C(Nc1ccc2ccccc2c1)c1nn(C23CC4CC(CC(C4)C2)C3)cc1Br — outcome? inactive
